# System: S. epidermis
# assayExplanation: MIC by broth microdilution (aerobic pathogens), test strain 5
# Type: cell-based
# conditionSet: Staphylococcus epidermidis; test strain 5, S. epidermis; read-out: MIC
Each entry below lists one item and its recorded MIC value.
Reply with just the number (in µg/mL).

C/C=C1\NC(=O)[C@H]([C@@H](C)O)NC(=O)c2csc(n2)-c2ccc(-c3nc(-c4nc(C(=O)NC5(C(=O)NCCCN6CCSCC6)CC5)cs4)cs3)nc2-c2csc(n2)[C@H]([C@@H](C)O)NC(=O)c2csc(n2)[C@H](C(C)C)NC(=O)c2csc1n2    0.5
C/C=C1\NC(=O)[C@H]([C@@H](C)O)NC(=O)c2csc(n2)-c2ccc(-c3nc(-c4nc(C(=O)NC5(C(=O)NCCN6CCN(S(C)(=O)=O)CC6)CC5)cs4)cs3)nc2-c2csc(n2)[C@H]([C@@H](C)O)NC(=O)c2csc(n2)[C@H](C(C)C)NC(=O)c2csc1n2    0.5
C/C=C(\NC(=O)c1csc(-c2csc(-c3ccc4c(n3)-c3csc(n3)[C@H]([C@@H](C)O)NC(=O)c3csc(n3)[C@H](C(C)C)NC(=O)c3csc(n3)/C(=C/C)NC(=O)[C@H]([C@@H](C)O)NC(=O)c3csc-4n3)n2)n1)C(=O)NCCn1c([N+](=O)[O-])cnc1C    0.25
CC(=O)NC[C@H]1CN(c2ccc(N3CCOCC3)c(F)c2)C(=O)O1 [Lin, Linezolid, reference compound]    1
C/C=C(\NC(=O)c1csc(-c2csc(-c3ccc4c(n3)-c3csc(n3)[C@H]([C@@H](C)O)NC(=O)c3csc(n3)[C@H](C(C)C)NC(=O)c3csc(n3)/C(=C/C)NC(=O)[C@H]([C@@H](C)O)NC(=O)c3csc-4n3)n2)n1)C(=O)NCCCN1CCN(C(C)C)CC1    0.25

Consider C/C=C1\NC(=O)[C@H]([C@@H](C)O)NC(=O)c2csc(n2)-c2ccc(-c3nc(-c4nc(C(=O)NC5(C(=O)NCCN6CCN(C7CC7)CC6)CC5)cs4)cs3)nc2-c2csc(n2)[C@H]([C@@H](C)O)NC(=O)c2csc(n2)[C@H](C(C)C)NC(=O)c2csc1n2 . Its measured MIC is 1

The value of MIC measured for the compound C/C=C1\NC(=O)[C@H]([C@@H](C)O)NC(=O)c2csc(n2)-c2ccc(-c3nc(-c4nc(C(=O)NC5(C(=O)NCCN6CCN(C(C)C)CC6)CC5)cs4)cs3)nc2-c2csc(n2)[C@H]([C@@H](C)O)NC(=O)c2csc(n2)[C@H](C(C)C)NC(=O)c2csc1n2 turned out to be 0.25

Just so you know, measured MIC for C/C=C1\NC(=O)[C@H]([C@@H](C)O)NC(=O)c2csc(n2)-c2ccc(-c3nc(-c4nc(C(=O)NC5(C(=O)NCCn6c([N+](=O)[O-])cnc6C)CC5)cs4)cs3)nc2-c2csc(n2)[C@H]([C@@H](C)O)NC(=O)c2csc(n2)[C@H](C(C)C)NC(=O)c2csc1n2 came out at 0.125

Data provenance: patent US12637478B2
